- METHOD_SUMMARY: in vitro
- CONDITION: human, hela cells, % viability
MEASURED_ATTRIBUTE: viability at 28.5 h, 10 µM (%)
Give the value, in units of %, as a plain number.

{"columns": ["COMPOUND", "MEASURED"],
 "data": [
  ["CCn1ncc(CN[C@@H]2CCC(=O)N[C@H]2c2cc(F)cc(F)c2)c1C", 98.3],
  ["Cc1ccc(NC(=O)C(=O)NCCCn2ccnc2)cc1C", 98],
  ["Oc1cccc(-c2cn3ccnc3c(NC3CC3)n2)c1", 101]
]}

Data point: O=C1Cc2cc3ccccc3cc2C2(CCN(C(=O)C3CCC3C(=O)O)CC2)N1 (stereo not shown) ; viability at 28.5 h, 10 µM = 92.5

compound CCCN1CC(NS(=O)(=O)c2cc(-n3cccn3)ccc2OC)CC1=O (stereo not shown) , viability at 28.5 h, 10 µM observed: 107

get_value(item= Cc1ccccc1C(=O)NC1(C(F)(F)F)C(=O)Nc2c1c(=O)[nH]c(=O)n2CCc1ccccc1 (stereo not shown) , readout=viability at 28.5 h, 10 µM) returns 86.6

Input "CCN1CCC(CNS(=O)(=O)c2ccc(N3CCCC3=O)cc2)CC1" . Output viability at 28.5 h, 10 µM: 101

Notebook: "Cn1c(=O)c2c(nc(NCc3ccc4c(c3)OCO4)n2Cc2cccc(Cl)c2)n(C)c1=O" , viability at 28.5 h, 10 µM read as 96.4

Notebook: "O=C(Nc1ccc(I)cc1)c1ccc(CN2CCc3ccccc3C2)cc1" , viability at 28.5 h, 10 µM read as 101

The compound identified as "CC(=O)Nc1ccc(S(=O)(=O)N2CCN(S(=O)(=O)N3CCCCCC3)CC2)cc1" registered its viability at 28.5 h, 10 µM at 99.3

Recorded result, "CN1CCN(c2ccccc2NC(=O)c2cccc(OCc3ccccc3)c2)CC1" , viability at 28.5 h, 10 µM: 102

* * *

- METHOD_SUMMARY: in vitro
- CONDITION: human, hela cells, % viability
hey, just use y if measured viability at 28.5 h, 10 µM is less than 90%, otherwise n

{"columns": ["MOLECULE", "ANSWER_LABEL"],
 "data": [
  ["Cc1ccc(NC(=O)CCCn2cc([N+](=O)[O-])cn2)cc1Cl [CBK268485]", "y"],
  ["CC(=O)Nc1ccc([C@@H](O)[C@H]2COCC(=O)N2Cc2ccc(C(F)(F)F)cc2)cc1 [CBK289678]", "n"],
  ["O=C(c1cccs1)n1nc(NCc2ccccc2)nc1NCc1ccccc1 [CBK269149]", "n"],
  ["CC(c1ccccc1)N(C)C(=O)Cn1c(-c2cccs2)n[nH]c1=S (stereo not shown) [CBK296718]", "n"],
  ["CCOC(=O)CN1CCC(Oc2nccnc2OCc2ccc(Cl)c(Cl)c2)CC1 [CBK083113T]", "n"]
]}

IN: Is the reported viability at 28.5 h, 10 µM for CCOc1oc2cc(O)ccc2c1C(=O)CSC1CCCCC1 [CBK022262] strictly below 90%?
OUT: y

IN: Criterion: viability at 28.5 h, 10 µM strictly below 90%. Is it met by Cc1cc(C(=O)NCCn2ccc(C)n2)c2cccc(Cl)c2n1 [CBK282549] ?
OUT: y

IN: Please determine if O=C(Nc1ccc(SC(F)F)cc1)c1cc(-c2ccncc2)nc2ccccc12 [CBK296092] is below 90% in terms of viability at 28.5 h, 10 µM.
OUT: y

IN: Dear reviewer, please state whether C=CCN(Cc1nc(-c2ccccc2)no1)C(=O)Nc1ccc(C)cc1 [CBK269859] has viability at 28.5 h, 10 µM strictly beneath 90%.
OUT: n

IN: Given the entry CC(O)CNCCCOc1ccccc1-c1ccccc1 (stereo not shown) [CBK268633G] , would its reported viability at 28.5 h, 10 µM be below 90%?
OUT: n

IN: Consider CC(C)C(NC(=O)C1C=CCN1S(C)(=O)=O)c1cccs1 (stereo not shown) [CBK282701] . Does its viability at 28.5 h, 10 µM lie strictly below 90%?
OUT: y

IN: Dear reviewer, please state whether COc1cccc2c3c([nH]c12)C1(CCCN(C/C=C\c2ccccc2)C1)NCC3 (stereo not shown) [CBK040138] has viability at 28.5 h, 10 µM strictly beneath 90%.
OUT: n

* * *

- METHOD_SUMMARY: in vitro
- CONDITION: human, hela cells, % viability
MEASURED_ATTRIBUTE: viability at 28.5 h, 10 µM (%)
Note: unit % is implicit; provide only the numeric part.

Measured viability at 28.5 h, 10 µM, "CCNC(=O)NC[C@@H]1C=C(C)[C@H](CC(=O)N2CCOCC2)C[C@H]1C(C)C" : 102

Just so you know, measured viability at 28.5 h, 10 µM for CN1CCN(C(=O)Cn2cc(C(=O)Nc3ccc(F)cc3)ccc2=O)C(c2ccccc2)C1 (stereo not shown) came out at 81.9

Form: compound = Cc1cc(C)c(OCCCN2CCCCCC2)c(Cl)c1 [CBK266026G] ; viability at 28.5 h, 10 µM = 101

response.value for "Cc1cc(C(C)(C)C)oc1C(=O)N1CCn2c(nnc2C2CC2)C1" (field: viability at 28.5 h, 10 µM) = 93.9

viability at 28.5 h, 10 µM recorded for this compound, "c1ccc(COc2ccc(CN3CCN(c4ccccn4)CC3)cc2)cc1" , is 89.3

Recorded viability at 28.5 h, 10 µM (compound "CC(=O)OCC(=O)Nc1ccc2cc(Br)cnc2n1" ): 91.1

* * *

Readings of viability at 28.5 h, 10 µM for the listed molecules
- METHOD_SUMMARY: in vitro
- CONDITION: human, hela cells, % viability
Kindly provide the numeric value in % only, without the unit symbol.

Past entries and their recorded results:
{"columns": ["MOLECULE", "viability at 28.5 h, 10 µM [%]"],
 "data": [
  ["CS(=O)(=O)Nc1nc2ccc(S(C)(=O)=O)cc2s1", 100],
  ["COc1cc(/C=N/c2ccc(O)c(-c3nc4ccccc4s3)c2)ccc1OC(=O)c1ccc(Cl)cc1Cl", 101],
  ["O=C(CCCC(=O)N1CCCC1)N1CCCC1", 108],
  ["Cc1c(Cl)c([N+](=O)[O-])nn1CC(=O)N1CCN(Cc2ccccc2)CC1", 89.8],
  ["Cc1ccn(-c2ccc(N3CCC4(CCOC4)C3)nn2)n1 (stereo not shown)", 87.8],
  ["Cc1cc2nc(N3CCN(C(=O)c4ccc(C#N)cc4)CC3)sc2cc1C", 98.8],
  ["CSc1oc(-c2ccccc2)nc1C(N)=O", 98.4],
  ["N#CCCCN1CCC(Oc2nccnc2OCc2cccc(Br)c2)CC1", 99.1]
]}

For this molecule ( "CN1C[C@@H](NS(C)(=O)=O)C[C@H]1c1nc(-c2ccc3ccccc3c2)no1" ), measured viability at 28.5 h, 10 µM is 106

response.value for "CN1CCN(c2ccc([N+](=O)[O-])cc2/C=N/NC(=O)CCc2ccccc2O)CC1" (field: viability at 28.5 h, 10 µM) = 97.7

Record "O=[N+]([O-])c1cccc(CNc2nccnc2-c2ccccc2F)c1" . Reported viability at 28.5 h, 10 µM: 102

Value of measured viability at 28.5 h, 10 µM for the entry "Cc1nn(C)cc1C(=O)N1CCC2(C/C=C/CCOc3ccccc3C(=O)NCCCNC2=O)CC1" : 110

Measured viability at 28.5 h, 10 µM, "Nc1nc(N)c2ncn([C@H]3C[C@@H](O)[C@@H](CO)O3)c2n1" : 97.4

viability at 28.5 h, 10 µM reported for this molecule "CC(C)(C)c1cc(C(=O)CSc2nnc(Nc3ccccc3)n2-c2ccccc2)cc(C(C)(C)C)c1O" : 94.1

The molecule "COc1ccc(CCN(Cc2ccc(Cl)c(Cl)c2)C(=O)NCCCSC)cc1OC" showed viability at 28.5 h, 10 µM equal to 91.1

Record "CN1C(=O)c2cccc3c(S(=O)(=O)N4CCN(S(=O)(=O)c5ccc6c7c(cccc57)C(=O)N6C)CC4)ccc1c23" . Reported viability at 28.5 h, 10 µM: 98.2

The reported viability at 28.5 h, 10 µM of the molecule "CN(CCCNC(=O)c1ncoc1-c1cccs1)c1ccccc1" was 103

Record COc1cc(N2CCCNCC2)ncn1 [CBK085485C] . Reported viability at 28.5 h, 10 µM: 91.6

Kindly note the recorded viability at 28.5 h, 10 µM for "Nn1c(SCC(=O)Nc2ccc3c(c2)OCCO3)nnc1-c1ccccn1" , which is 87.4

* * *

- METHOD_SUMMARY: in vitro
- CONDITION: human, hela cells, % viability
MEASURED_ATTRIBUTE: viability at 28.5 h, 10 µM (%)
Just the number please, in %, no unit attached.

The reported viability at 28.5 h, 10 µM of the molecule "O=C(NCc1ccco1)NC(=O)c1ccc(Cl)cc1" was 95.8

Source of measurements: paper PMC12040169
